- Test system: E. coli (ATCC 10536)
- PROTOCOL SUMMARY: European Standard Assay method EN 1040, antimicrobial bioassay
- Format: cell-based
- CONDITION DETAILS: logarithmic scale (5 = factor of 100000); 5 min incubation
I'd be grateful if you could share measured Bioassay data E. coli 5 min for these entries.

May I ask what Bioassay data E. coli 5 min has been recorded for CCOP(=O)(CCC#N)OCC ? <1

Suppose we examine the compound CCCCCCCCCCCCCCCCCC(=O)NCCP(=O)(OCC)OCC ; what Bioassay data E. coli 5 min value has been reported? <1

Can you look up the measured Bioassay data E. coli 5 min of CCCCCCCC/C=C/CCCCCCCC(=O)NCCP(=O)(OCC)OCC for me? <1

Please look up its Bioassay data E. coli 5 min: CCOP(=O)(CCCCNC(=O)OCc1ccccc1)OCC <1

I'd like to know its Bioassay data E. coli 5 min. The compound in question is CCOP(=O)(CCNC(=O)CCCCCN=[N+]=[N-])OCC <1

# lookup: Bioassay data E. coli 5 min of CCOP(=O)(CCNC(=O)CCC(=O)O)OCC <1
